Test system: Franklinella occidentalis
Assay: Insecticidal activity against Franklinella occidentalis nymphs, sprayed bean leaves
Format: in vivo
Conditions: 10 mg/L
Reported Mortality rate (%, 3 days after the administration) 10 mg/L values follow for various compounds
Provide the reading as a plain figure in %.

compound	reading.unit	quantitative.readout
C#CCN(C(=O)c1ccc(F)cc1)c1cccc(C(=O)Nc2c(I)cc(C(F)(C(F)(F)F)C(F)(F)F)cc2C(F)(F)F)c1F [Compound 36]	%	95.56
C#CCN(C(=O)c1ccc(F)nc1)c1cccc(C(=O)Nc2c(Br)cc(C(F)(C(F)(F)F)C(F)(F)F)cc2C(F)(F)F)c1F [Compound 47]	%	100
C=CCN(C(=O)c1ccccc1)c1cccc(C(=O)Nc2c(Br)cc(C(F)(C(F)(F)F)C(F)(F)F)cc2C(F)(F)F)c1F [Compound 3]	%	93.33

Now consider the entry below.
QUERY: Give Franklinella occidentalis Mortality rate (%, 3 days after the administration) 10 mg/L for the following compound: CN(C(=O)c1ccc(F)cc1)c1cccc(C(=O)Nc2c(I)cc(C(F)(C(F)(F)F)C(F)(F)F)cc2C(F)(F)F)c1F [KC5, reference compound]
RESULT: 28.89

----------
System: Franklinella occidentalis
Assay: Insecticidal activity against Franklinella occidentalis nymphs, sprayed bean leaves
Type: in vivo
Conditions: 100 mg/L
Each entry below lists one item and its recorded Mortality rate (%, 3 days after the administration) 100 mg/L value.
Report only the number, with the unit % understood.

Field: example entries. Status: answers known.
molecule	quantitative.readout
CN(C(=O)c1ccc(F)nc1)c1cccc(C(=O)Nc2c(I)cc(C(F)(C(F)(F)F)C(F)(F)F)cc2C(F)(F)F)c1F [KC8, reference compound]	82.22
C=CCN(C(=O)c1ccc(F)nc1)c1cccc(C(=O)Nc2c(Br)cc(C(F)(C(F)(F)F)C(F)(F)F)cc2C(F)(F)F)c1F	100
C=CCN(C(=O)c1ccc(F)cc1)c1cccc(C(=O)Nc2c(Br)cc(C(F)(C(F)(F)F)C(F)(F)F)cc2C(F)(F)F)c1F	100

Next:
QUERY: Specify Mortality rate (%, 3 days after the administration) 100 mg/L for "C=CCN(C(=O)c1ccc(F)cc1)c1cccc(C(=O)Nc2c(I)cc(C(F)(C(F)(F)F)C(F)(F)F)cc2C(F)(F)F)c1F" and stop.
RESULT: 100

----------
Collected mortality at 1 µg/cm2 values appear next to each entry.
Test system: cat flea
Assay: Insecticidal experiment on cat flea, thin film in culture dish
Format: in vivo
Details: Ctenocephalides felis, 72 h, read-out: mortality rate, cat flea

Solved cases below.
query.smiles	value.kind	result
C#CCN(C(=O)c1ccc(F)nc1)c1cccc(C(=O)Nc2c(I)cc(C(F)(C(F)(F)F)C(F)(F)F)cc2C(F)(F)F)c1F	mortality at 1 µg/cm2	> 90%
C#CCN(C(=O)c1ccc(F)nc1)c1cccc(C(=O)Nc2c(Br)cc(C(F)(C(F)(F)F)C(F)(F)F)cc2C(F)(F)F)c1F	mortality at 1 µg/cm2	> 90%

QUERY: Answer with the recorded mortality at 1 µg/cm2 for the molecule listed here: "C=CCN(C(=O)c1ccc(F)nc1)c1cccc(C(=O)Nc2c(Br)cc(C(F)(C(F)(F)F)C(F)(F)F)cc2C(F)(F)F)c1F"
RESULT: > 90%

QUERY: Hello, please tell me recorded mortality at 1 µg/cm2 for this one: "C=CCN(C(=O)c1ccc(F)cc1)c1cccc(C(=O)Nc2c(Br)cc(C(F)(C(F)(F)F)C(F)(F)F)cc2C(F)(F)F)c1F"
RESULT: > 90%

QUERY: Indicate the recorded mortality at 1 µg/cm2 value for this molecule: "C=CCN(C(=O)c1ccc(C(F)(F)F)nc1)c1cccc(C(=O)Nc2c(Br)cc(C(F)(C(F)(F)F)C(F)(F)F)cc2C(F)(F)F)c1F"
RESULT: > 90%

QUERY: Please give measured mortality at 1 µg/cm2 of the following entry: "C#CCN(C(=O)c1ccc(C(F)(F)F)nc1)c1cccc(C(=O)Nc2c(Br)cc(C(F)(C(F)(F)F)C(F)(F)F)cc2C(F)(F)F)c1F"
RESULT: > 90%

QUERY: Could you please provide reported mortality at 1 µg/cm2 for "C#CCN(C(=O)c1ccc(C#N)cc1)c1cccc(C(=O)Nc2c(Br)cc(C(F)(C(F)(F)F)C(F)(F)F)cc2C(F)(F)F)c1F" ? Thanks!
RESULT: > 90%

QUERY: For "C#CCN(C(=O)c1ccc(C#N)cc1)c1cccc(C(=O)Nc2c(I)cc(C(F)(C(F)(F)F)C(F)(F)F)cc2C(F)(F)F)c1F" , write its mortality at 1 µg/cm2.
RESULT: > 90%

Data origin, for the record: patent US20240199552A1
